System Name: Carbonic anhydrase 12 (Homo sapiens, UniProt O43570)
Sequence (O43570 whole entry): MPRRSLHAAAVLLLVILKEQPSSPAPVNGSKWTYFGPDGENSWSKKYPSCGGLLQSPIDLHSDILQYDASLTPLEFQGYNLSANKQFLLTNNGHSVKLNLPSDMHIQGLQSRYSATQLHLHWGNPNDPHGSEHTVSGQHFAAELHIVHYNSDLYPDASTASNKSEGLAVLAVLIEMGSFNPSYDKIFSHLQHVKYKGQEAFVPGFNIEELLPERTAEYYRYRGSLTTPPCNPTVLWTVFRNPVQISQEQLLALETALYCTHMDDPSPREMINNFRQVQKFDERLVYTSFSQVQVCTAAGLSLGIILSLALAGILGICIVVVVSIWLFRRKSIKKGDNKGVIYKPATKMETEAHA
Measured Metric: pKi
Numbers only, as −log10 of the molar value.

// lookup pKi for CCc1ccc2ccc(=O)oc2c1C(C)=O 9.00
